# measurement_target: PRMT5 (Homo sapiens (Human), UniProt O14744)
# Sequence (O14744 whole entry): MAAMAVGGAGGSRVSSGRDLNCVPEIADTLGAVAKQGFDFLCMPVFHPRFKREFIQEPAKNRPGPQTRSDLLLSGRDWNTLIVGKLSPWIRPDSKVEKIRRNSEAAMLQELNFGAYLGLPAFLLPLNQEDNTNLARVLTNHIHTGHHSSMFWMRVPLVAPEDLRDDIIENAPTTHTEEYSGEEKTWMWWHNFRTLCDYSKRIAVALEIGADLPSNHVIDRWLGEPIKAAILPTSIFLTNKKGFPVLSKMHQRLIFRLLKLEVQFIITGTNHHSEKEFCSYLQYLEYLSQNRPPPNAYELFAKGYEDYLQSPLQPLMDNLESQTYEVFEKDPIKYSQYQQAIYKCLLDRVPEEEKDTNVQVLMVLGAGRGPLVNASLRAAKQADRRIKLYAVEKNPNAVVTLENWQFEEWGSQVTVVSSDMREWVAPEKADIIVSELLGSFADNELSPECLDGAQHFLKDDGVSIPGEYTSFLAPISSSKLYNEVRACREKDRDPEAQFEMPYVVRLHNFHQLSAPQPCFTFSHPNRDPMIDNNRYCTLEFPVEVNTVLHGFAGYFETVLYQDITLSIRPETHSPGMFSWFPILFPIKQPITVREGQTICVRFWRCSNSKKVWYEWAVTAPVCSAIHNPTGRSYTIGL
# Sequence (Q9BQA1 whole entry partner): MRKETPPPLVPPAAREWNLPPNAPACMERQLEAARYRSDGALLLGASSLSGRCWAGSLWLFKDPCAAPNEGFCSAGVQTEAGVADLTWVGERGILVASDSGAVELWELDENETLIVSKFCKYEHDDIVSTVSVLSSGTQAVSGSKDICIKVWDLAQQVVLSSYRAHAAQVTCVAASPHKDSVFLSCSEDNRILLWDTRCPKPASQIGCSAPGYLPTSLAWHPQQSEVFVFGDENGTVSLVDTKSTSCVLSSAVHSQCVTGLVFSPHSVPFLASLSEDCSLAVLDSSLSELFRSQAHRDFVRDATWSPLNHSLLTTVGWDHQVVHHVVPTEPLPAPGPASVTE
# protocol_notes: PRMT5 Cell Target Engagement (TE) Assay
# assay_context: MCF-7 cells, 3 days treatment, nuclear SDMA by high content imaging; top compound concentration 10000 nM
quantity_kind: EC50 (µM)

Worked examples, 2 molecules total:
CC[C@H]1CN(C[C@@H](O)[C@@H]2Cc3ccccc3CN2)C(=O)c2cc(NC3CCN(C(C)=O)CC3)ncc21 (single isomer, unassigned) [Example 8]: 3.24
CC(=O)N1CCC(Nc2cc3c(cn2)C(C)(C)CN(C[C@@H](O)[C@@H]2Cc4ccccc4CN2)C3=O)CC1 (single isomer, unassigned) [Example 12]: 0.102

(A) CC(=O)N1CCC(Nc2cc3c(cn2)C(C)(C)CN(C[C@@H](O)[C@@H]2Cc4ccccc4CN2)C3=O)CC1 (single isomer, unassigned) [Example 11]
(B) CC[C@H]1CN(C[C@@H](O)[C@@H]2Cc3ccccc3CN2)C(=O)c2cc(NC3CCN(C(C)=O)CC3)ncc21 (single isomer, unassigned) [Example 9]
Lookup: Which record would sort first by descending EC50, A or B ? Indicate which entry you chose by stating its label.
Found: A
(A: 3.89 µM, B: 0.103 µM)
